All values here come from patent US4363805A.

Here the recorded blood pressure after is given for each entry.
System: narcotised guinea pigs
Protocol description: Blood pressure experiments on guinea pigs, i.v.
Type: in vivo, guinea pig
Assay conditions: 0.25 mg/kg i.v.

# example entries with known answers
CC(=O)N[C@H]1CO[C@H]2[C@@H]1OC[C@@H]2O[N+](=O)[O-] [Example 6]; 63.75 ± 7.32 mm.Hg
CN1CCN([C@H]2CO[C@H]3[C@@H]2OC[C@@H]3O[N+](=O)[O-])CC1 [17 b]; 59.00 ± 2.27 mm.Hg
Cc1cccc(OCC(O)CN[C@H]2CO[C@H]3[C@@H]2OC[C@@H]3O[N+](=O)[O-])c1 (stereo partly shown) [Example 51]; 63.00 ± 2.35 mm.Hg

Need blood pressure after of O=[N+]([O-])O[C@H]1CO[C@H]2[C@@H]1OC[C@@H]2N1CCCCC1 [15 b] , thanks.
63.00 ± 1.83 mm.Hg
